Reference source: ChEMBL document CHEMBL1649444

# System: RAW264.7
# assay text: Induction of apoptosis in mouse RAW264.7 cells assessed as early apoptotic cells at 200 uM after 16 hrs using annexin V-propidium iodide staining by flow cytometry
# Format: cell-based
# recorded conditions: raw264.7, 16 h
outcome measure: Activity (%)
State the answer as a number, implicitly in %.

Requested read-out: Activity. Entry: COc1ccc2[nH]c([S+]([O-])Cc3ncc(C)c(OC)c3C)nc2c1 (stereo unspecified)
25.3

###

# System: RAW264.7
# assay text: Induction of apoptosis in mouse RAW264.7 cells assessed as necrotic cells at 200 uM after 16 hrs using annexin V-propidium iodide staining by flow cytometry
# Assay type: cell-based
# recorded conditions: raw264.7, 16 h
outcome measure: Activity (%)
Field: numeric (%). Do not append units.

GET /values?readout=Activity&system=RAW264.7&item= COc1ccc2[nH]c([S+]([O-])Cc3ncc(C)c(OC)c3C)nc2c1 (stereo unspecified) [OMEPRAZOLE]
0.1

###

# System: RAW264.7
# assay text: Induction of apoptosis in mouse RAW264.7 cells assessed as necrotic cells at 100 nM after 16 hrs using annexin V-propidium iodide staining by flow cytometry
# Format: cell-based
# recorded conditions: raw264.7, 16 h, 0.1 µM
outcome measure: Activity (%)
Your answer should be a plain number; it is taken to be in %.

Reported Activity for "CO/C1=C\C(C)=C\[C@@H](C)[C@@H](O)[C@@H](C)C/C(C)=C/C=C/[C@H](OC)[C@@H]([C@@H](C)[C@@H](O)[C@H](C)[C@@]2(O)C[C@@H](O)[C@H](C)[C@@H](C(C)C)O2)OC1=O" : what is it?
0.4

###

# Test system: RAW264.7
# assay text: Induction of apoptosis in mouse RAW264.7 cells assessed as early apoptotic cells at 100 nM after 16 hrs using annexin V-propidium iodide staining by flow cytometry
# Type: cell-based
# recorded conditions: raw264.7, 16 h, 0.1 µM
outcome measure: Activity
For clarity, give the value followed by its unit.

Bench note: what Activity did "CO/C1=C\C(C)=C\[C@@H](C)[C@@H](O)[C@@H](C)C/C(C)=C/C=C/[C@H](OC)[C@@H]([C@@H](C)[C@@H](O)[C@H](C)[C@@]2(O)C[C@@H](O)[C@H](C)[C@@H](C(C)C)O2)OC1=O" show?
29.2%
